# assayed_target: CYP21 (steroid 21-hydroxylase) (Homo sapiens, UniProt P08686)
# Sequence (P08686 whole entry): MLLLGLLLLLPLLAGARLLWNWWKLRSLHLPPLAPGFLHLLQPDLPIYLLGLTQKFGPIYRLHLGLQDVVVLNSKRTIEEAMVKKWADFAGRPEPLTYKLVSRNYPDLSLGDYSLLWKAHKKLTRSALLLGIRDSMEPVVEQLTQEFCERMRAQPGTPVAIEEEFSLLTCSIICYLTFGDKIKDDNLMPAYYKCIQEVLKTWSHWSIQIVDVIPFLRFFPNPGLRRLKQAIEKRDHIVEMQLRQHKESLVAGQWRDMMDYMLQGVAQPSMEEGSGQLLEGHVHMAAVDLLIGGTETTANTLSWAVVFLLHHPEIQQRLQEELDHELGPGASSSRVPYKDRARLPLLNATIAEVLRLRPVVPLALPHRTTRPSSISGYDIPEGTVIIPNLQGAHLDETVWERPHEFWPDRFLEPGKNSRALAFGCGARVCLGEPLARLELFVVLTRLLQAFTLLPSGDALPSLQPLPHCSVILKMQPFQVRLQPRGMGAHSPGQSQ
# protocol_description: Inhibition of human CYP21 transfected in HEK293 cells assessed as decrease in conversion of progesterone to 11-deoxycorticosterone preincubated for 5 hrs followed by progesterone addition measured after 20 hrs by ELISA
# Format: cell-based
# Design: concentration or dose not given beside the values
# assay_context: HEK293 cells transfected with human CYP21, probe progesterone
Here the recorded inhibition at 20 h is given for each entry.

Field: example entries. Status: answers known.
[
  {
    "compound": "C[C@]12CC[C@H]3[C@@H](CC(F)[C@]4(O)C[C@@H](O)CC[C@]34C)[C@@H]1CC=C2c1cccnc1 (some centres not stated)",
    "inhibition at 20 h": "≥ 50%"
  },
  {
    "compound": "C[C@]1(O)CC[C@@]2(C)C(CC[C@@H]3[C@@H]2CC[C@]2(C)C(c4cccnc4)=CC[C@@H]32)C1 (some centres not stated)",
    "inhibition at 20 h": "≥ 50%"
  },
  {
    "compound": "CC1C[C@@H]2[C@H](CC[C@]3(C)C(c4cccnc4)=CC[C@@H]23)[C@@]2(C)CC[C@](C)(O)CC12 (some centres not stated)",
    "inhibition at 20 h": "10 to 50%"
  },
  {
    "compound": "CC1C[C@H]2C3=CC=C(c4cncc(F)c4)[C@@]3(C)CC[C@@H]2[C@@]2(C)CCNC(=O)C=C12 (some centres not stated)",
    "inhibition at 20 h": "10 to 50%"
  },
  {
    "compound": "CC(=O)N[C@@H]1CC[C@@]2(C)C(=CC[C@H]3C4=CC=C(n5ccnc5)[C@@]4(C)CC[C@@H]32)C1",
    "inhibition at 20 h": "10 to 50%"
  },
  {
    "compound": "C[C@]12CC[C@@H](NC(=O)c3nccs3)CC1=CC[C@@H]1[C@@H]2CC[C@]2(C)C(n3ccnc3)=CC[C@@H]12",
    "inhibition at 20 h": "10 to 50%"
  }
]

Now look at this entry.
q: Hi! What's the reported inhibition at 20 h for CC1(O)C=C2CC[C@@H]3[C@H](CC[C@]4(C)C(c5cccnc5)=CC[C@@H]34)[C@@]2(C)CC1 (some centres not stated) on CYP21 (steroid 21-hydroxylase) (Homo sapiens, UniProt P08686)?
a: 10 to 50%

Hello, the source for this data is ChEMBL document CHEMBL3882724, in case you need it.
